Test system: Aspergillus fumigatus IAM2530
Reported MIC values for the following compounds.

{"compound": "COc1cc(O)c2c(c1)C(=O)c1c(cc3c(c1O)-c1c(cc(C)c(C(=O)N[C@H](C)C(=O)O)c1O)[C@H](O[C@@H]1O[C@H](C)[C@H](N(C)CC(=O)O)[C@H](O[C@@H]4OC[C@@H](O)[C@H](O)[C@H]4O)[C@H]1O)[C@H]3O)C2=O", "MIC [µg/mL]": 100}
{"compound": "COc1cc(O)c2c(c1)C(=O)c1c(cc3c(c1O)-c1c(cc(C)c(C(=O)N[C@H](C)C(=O)O)c1O)[C@H](O[C@@H]1O[C@H](C)[C@H](N(C)CC(N)=O)[C@H](O[C@@H]4OC[C@@H](O)[C@H](O)[C@H]4O)[C@H]1O)[C@H]3O)C2=O", "MIC [µg/mL]": 12.5}
{"compound": "CCOC(=O)CN(C)[C@@H]1[C@H](O[C@@H]2OC[C@@H](O)[C@H](O)[C@H]2O)[C@@H](O)[C@H](O[C@H]2c3cc(C)c(C(=O)N[C@H](C)C(=O)O)c(O)c3-c3c(cc4c(c3O)C(=O)c3cc(OC)cc(O)c3C4=O)[C@@H]2O)O[C@@H]1C [Ex. 3, N-(ethoxycarbonylmethyl) pradimicin A]", "MIC [µg/mL]": 50}
{"compound": "COc1cc(O)c2c(c1)C(=O)c1c(cc3c(c1O)-c1c(cc(C)c(C(=O)N[C@H](C)C(=O)O)c1O)[C@H](O[C@@H]1O[C@H](C)[C@H](N(C)C=O)[C@H](O[C@@H]4OC[C@@H](O)[C@H](O)[C@H]4O)[C@H]1O)[C@H]3O)C2=O", "MIC [µg/mL]": 50}
{"compound": "COc1cc(O)c2c(c1)C(=O)c1c(cc3c(c1O)-c1c(cc(C)c(C(=O)N[C@H](C)C(=O)O)c1O)[C@H](O[C@@H]1O[C@H](C)[C@H](N(C)C(=O)CN(C)C)[C@H](O[C@@H]4OC[C@@H](O)[C@H](O)[C@H]4O)[C@H]1O)[C@H]3O)C2=O", "MIC [µg/mL]": 12.5}
{"compound": "COc1cc(O)c2c(c1)C(=O)c1c(cc3c(c1O)-c1c(cc(C)c(C(=O)N[C@H](C)C(=O)O)c1O)[C@H](O[C@@H]1O[C@H](C)[C@H](N(C)C/C=C/C(=O)O)[C@H](O[C@@H]4OC[C@@H](O)[C@H](O)[C@H]4O)[C@H]1O)[C@H]3O)C2=O", "MIC [µg/mL]": 100}
{"compound": "CN[C@@H]1[C@H](O[C@@H]2OC[C@@H](O)[C@H](O)[C@H]2O)[C@@H](O)[C@H](O[C@H]2c3cc(C)c(C(=O)N[C@H](C)C(=O)O)c(O)c3-c3c(cc4c(c3O)C(=O)c3cc(OC)cc(O)c3C4=O)[C@@H]2O)O[C@@H]1C [Pradimicin A, reference compound]", "MIC [µg/mL]": 3.1}
{"compound": "COc1cc(O)c2c(c1)C(=O)c1c(cc3c(c1O)-c1c(cc(C)c(C(=O)N[C@H](C)C(=O)O)c1O)[C@H](O[C@@H]1O[C@H](C)[C@H](NCS(=O)(=O)O)[C@H](O[C@@H]4OC[C@@H](O)[C@H](O)[C@H]4O)[C@H]1O)[C@H]3O)C2=O [Ex. 7, N-(sodiosulfomethyl) pradimicin C]", "MIC [µg/mL]": 3.1}
{"compound": "COC(=O)/C=C/CN(C)[C@@H]1[C@H](O[C@@H]2OC[C@@H](O)[C@H](O)[C@H]2O)[C@@H](O)[C@H](O[C@H]2c3cc(C)c(C(=O)N[C@H](C)C(=O)O)c(O)c3-c3c(cc4c(c3O)C(=O)c3cc(OC)cc(O)c3C4=O)[C@@H]2O)O[C@@H]1C", "MIC [µg/mL]": 12.5}
{"compound": "COc1cc(O)c2c(c1)C(=O)c1c(cc3c(c1O)-c1c(cc(C)c(C(=O)N[C@H](C)C(=O)O)c1O)[C@H](O[C@@H]1O[C@H](C)[C@H](N(C)C(=O)CN)[C@H](O[C@@H]4OC[C@@H](O)[C@H](O)[C@H]4O)[C@H]1O)[C@H]3O)C2=O", "MIC [µg/mL]": 12.5}
{"compound": "COc1cc(O)c2c(c1)C(=O)c1c(cc3c(c1O)-c1c(cc(C)c(C(=O)N[C@H](C)C(=O)O)c1O)[C@H](O[C@@H]1O[C@H](C)[C@H](N(C)C(=O)CCN)[C@H](O[C@@H]4OC[C@@H](O)[C@H](O)[C@H]4O)[C@H]1O)[C@H]3O)C2=O", "MIC [µg/mL]": 50}

From: patent EP0428132A1
